Below: a set of entries, each annotated with reported phenotypically active.
- Tested on: A549-ACTB-RAB5A
- run description: phenotypically active (imaging signature differs from DMSO and reproducible) at any of 0.3-9 uM (binary (1 = active, 0 = inactive)); higher = active
- conditions: treatment time: 24 h
recorded endpoint: phenotypically active

[[record]]
compound = "CN(C)C1CCN(C(=O)c2ccc(NC(=O)Nc3ccc(-c4nc(N5CCOCC5)nc(N5CCOCC5)n4)cc3)cc2)CC1"
recorded_endpoint = "phenotypically active"
result_number = 1

[[record]]
compound = "Cn1c(=O)c2nc[nH]c2n(C)c1=O"
recorded_endpoint = "phenotypically active"
result_number = 0

[[record]]
compound = "COc1ccc(-c2noc(CSc3nnc(C)n3-c3ccc(OC)cc3)n2)cc1"
recorded_endpoint = "phenotypically active"
result_number = 0

[[record]]
compound = "COc1cc(C)c(Sc2cnc(NC(=O)c3ccc(CNC(C)C(C)(C)C)cc3)s2)cc1C(=O)N1CCN(C(C)=O)CC1 (configuration not stated)"
recorded_endpoint = "phenotypically active"
result_number = 1

[[record]]
compound = "C[C@](N)(Cc1ccc(O)c(O)c1)C(=O)O"
recorded_endpoint = "phenotypically active"
result_number = 0

[[record]]
compound = "OC[C@H]1O[C@@H](Oc2ccc(O)cc2)[C@H](O)[C@@H](O)[C@@H]1O"
recorded_endpoint = "phenotypically active"
result_number = 0

[[record]]
compound = "CC(C)NCCCn1c(Sc2cc3c(cc2I)OCO3)nc2c(N)ncnc21"
recorded_endpoint = "phenotypically active"
result_number = 1

[[record]]
compound = "Cn1cnc2c(NCc3ccccc3)nc(NCCO)nc21"
recorded_endpoint = "phenotypically active"
result_number = 0

[[record]]
compound = "COc1ccc(CCc2nc3cc(-c4c(C)noc4C)ccc3n2C[C@H](C)N2CCOCC2)cc1Cl"
recorded_endpoint = "phenotypically active"
result_number = 1

[[record]]
compound = "O=NN(CCCl)C(=O)NCCCl"
recorded_endpoint = "phenotypically active"
result_number = 0

[[record]]
compound = "Nc1ccc(C(=O)O)c(O)c1 [aminosalicylate]"
recorded_endpoint = "phenotypically active"
result_number = 0

[[record]]
compound = "O=C(Cn1ccnc1[N+](=O)[O-])NCc1ccccc1"
recorded_endpoint = "phenotypically active"
result_number = 0

[[record]]
compound = "COc1ncc2cc(C(=O)Nc3cc(C(=O)NCc4cccc(Cl)c4)ccc3Cl)c(=O)[nH]c2n1"
recorded_endpoint = "phenotypically active"
result_number = 0

[[record]]
compound = "Clc1ccc2c(c1)C(N1CCNCC1)=Nc1ccccc1O2"
recorded_endpoint = "phenotypically active"
result_number = 1

[[record]]
compound = "O=C(COc1cccc2c(=O)[nH]ccc12)c1ccccc1"
recorded_endpoint = "phenotypically active"
result_number = 0

[[record]]
compound = "COc1ccc(-c2ccc3cc(C(=O)O)ccc3c2)cc1C12CC3CC(CC(C3)C1)C2"
recorded_endpoint = "phenotypically active"
result_number = 0

[[record]]
compound = "CC(C)C(=O)SCCCCCCC(=O)Nc1nc(-c2ccccc2)cs1"
recorded_endpoint = "phenotypically active"
result_number = 1


* * *

- System: A549-CANX-COX4
- run description: phenotypically active (imaging signature differs from DMSO and reproducible) at any of 0.3-9 uM (binary (1 = active, 0 = inactive)); higher = active
- conditions: treatment time: 24 h
Where a name gives a salt, the structure may show the parent alone.
Outcomes: Yes (active), No (inactive)

[[record]]
compound = "CC(=O)[C@@]1(O)CC[C@H]2[C@@H]3C[C@H](C)C4=CC(=O)C=C[C@]4(C)[C@@]3(F)[C@@H](O)C[C@@]21C"
group = "Yes"

[[record]]
compound = "COC(=O)[C@H]1[C@H]2C[C@H]3c4[nH]c5ccccc5c4CCN3C[C@@H]2CC[C@@H]1O [Corynanthine hydrochloride]"
group = "No"

[[record]]
compound = "CC[C@]12CCCN3CCc4c(n(c5ccccc45)[C@@](O)(C(=O)OC)C1)[C@@H]32"
group = "No"

[[record]]
compound = "Cc1ncc([N+](=O)[O-])n1CCOC(=O)NC(Nc1ncccn1)C(Cl)(Cl)Cl (configuration not stated)"
group = "No"

[[record]]
compound = "COc1ccc(-c2cc3c(C)nc(N)nc3n([C@H]3CC[C@H](OCCO)CC3)c2=O)cn1"
group = "Yes"

[[record]]
compound = "O=C(/C=C/N1C[C@H]2C[C@@H]1CN2c1ccccn1)c1ccccc1O"
group = "No"

[[record]]
compound = "Cc1c[nH]c2nccc(Oc3c(F)cc(Nc4cc(Cl)nc(N)n4)cc3F)c12"
group = "Yes"

[[record]]
compound = "O=C(Nc1ccc(CN2CCOCC2)cc1)c1ccc(-c2cccc(Cl)c2)o1"
group = "No"

[[record]]
compound = "O=C(O)c1ccc(N2N=C(Cc3ccccc3)/C(=C/c3ccc(-c4ccccc4F)o3)C2=O)cc1"
group = "No"

[[record]]
compound = "COP(=O)(OC)OC(c1ccc(Cl)cc1)P(=O)(OC)OC (configuration not stated)"
group = "No"

[[record]]
compound = "C/C=C1\\NC(=O)[C@H]2CSSCCC=C[C@H](CC(=O)N[C@H](C(C)C)C(=O)N2)OC(=O)[C@H](C(C)C)NC1=O"
group = "Yes"

[[record]]
compound = "O=C(O)[C@H](Cc1c[nH]c2ccccc12)N1C(=O)c2ccccc2C1=O"
group = "No"

[[record]]
compound = "CN1C(=O)CC[C@H]1c1cccnc1 [(-)-Cotinine]"
group = "No"

[[record]]
compound = "N#Cc1c(O)c2c(-c3ccc(-c4ccccc4O)cc3)csc2[nH]c1=O"
group = "No"

[[record]]
compound = "C[C@H]1[C@H](C)CC[C@]2(C(=O)O)CC[C@]3(C)C(=CC[C@@H]4[C@@]5(C)CC[C@H](O)C(C)(C)[C@@H]5CC[C@]43C)[C@H]12"
group = "No"

[[record]]
compound = "O=c1cc(-c2ccc(O)cc2)oc2c(C3O[C@H](CO)[C@@H](O)[C@H](O)[C@H]3O)c(O)cc(O)c12 (some centres not stated)"
group = "No"

[[record]]
compound = "COc1cc(C(=O)N2CCC(N3CCN(C)CC3)CC2)ccc1Nc1ncc2c(n1)N(C)c1ccccc1C(=O)N2C"
group = "Yes"

[[record]]
compound = "Cc1noc(C)c1-c1ccc2c(c1)nc(CCc1ccc(OCCCN(C)C)cc1)n2CCN1CCOCC1"
group = "No"

[[record]]
compound = "Cc1nc(Nc2ncc(C(=O)Nc3c(C)cccc3Cl)s2)cc(N2CCN(CCO)CC2)n1"
group = "Yes"

[[record]]
compound = "O=C(CCCCCCC(=O)Nc1cccnc1)NO [Pyroxamide]"
group = "Yes"

[[record]]
compound = "CCSc1ccc2c(c1)N(CCCN1CCN(C)CC1)c1ccccc1S2"
group = "No"

[[record]]
compound = "CCN1CCN(C(c2cccnc2)c2cc(Cl)c3cccnc3c2O)CC1 (configuration not stated)"
group = "Yes"

[[record]]
compound = "C/C(=C/c1ccc(C(=O)O)cc1)c1ccc2c(c1)C(C)(C)CCC2(C)C"
group = "No"

[[record]]
compound = "C#C[C@]1(O)CC[C@H]2[C@@H]3CCc4cc(OC)ccc4[C@H]3CC[C@@]21C"
group = "No"

[[record]]
compound = "CCCNCC(O)COc1ccccc1C(=O)CCc1ccccc1 (configuration not stated)"
group = "No"

[[record]]
compound = "CCCCc1oc2ccc(NS(C)(=O)=O)cc2c1C(=O)c1ccc(OCCCN(CCCC)CCCC)cc1"
group = "Yes"

[[record]]
compound = "O=c1[nH]cnc2ccccc12"
group = "No"

[[record]]
compound = "O=C(Nc1ccccc1)c1cc([N+](=O)[O-])ccc1Cl"
group = "Yes"

[[record]]
compound = "O=C(Nc1cccc(Br)c1)c1cccc(S(=O)(=O)N2CCCCCC2)c1"
group = "No"

[[record]]
compound = "CC[C@@H]1C(=O)N(C)c2cnc(Nc3ccc(C(=O)NC4CCN(C)CC4)cc3OC)nc2N1C1CCCC1"
group = "Yes"

[[record]]
compound = "CC1=C(CC(=O)O)c2cc(F)ccc2/C1=C\\c1ccc(S(C)=O)cc1 (configuration not stated)"
group = "No"

[[record]]
compound = "O=C(NCCCNc1nc(Nc2cccc(NC(=O)N3CCCC3)c2)ncc1I)c1cccs1"
group = "Yes"


* * *

- Tested on: WPMY1-TUBA1B-RELA
- run description: lowest phenotypically active concentration; higher = less potent
- conditions: treatment time: 24 h
The following compounds are shown together with reported lowest phenotypically active concentration values.
recorded endpoint: lowest phenotypically active concentration

[[record]]
substance_smiles = "O=C(O)c1ccc(Nc2ncc3c(n2)-c2ccc(Cl)cc2C(c2c(F)cccc2F)=NC3)cc1"
result = "≤ 0.3 µM"

[[record]]
substance_smiles = "Cc1ccc(C(=O)N(CCCN)[C@@H](c2oc3cc(Cl)ccc3c(=O)c2Cc2ccccc2)C(C)C)cc1"
result = "≤ 0.3 µM"

[[record]]
substance_smiles = "Cc1c(CN2CCN(C(=O)[C@H](C)O)CC2)sc2c(N3CCOCC3)nc(-c3cnc(N)nc3)nc12"
result = "≤ 0.3 µM"

